Reference source for all entries: patent US5814646A

System: Aβ production in 293 751 SWE and CHO 751 SWE cells (transfected with APP-751 Swedish mutation)
Assay: Aβ production inhibition activity in cells (Aβ ELISA of conditioned media, normalized for cytotoxicity by MTT)
Type: cell-based
Conditions: 2 h pretreatment + 2 h incubation
Would you kindly list IC50 for each of these compounds?

Some solved cases for reference:
Give the reported value of IC50 for this record: `O=C(Nc1ccc(Cl)c(Cl)c1)c1nc(C(F)(F)F)no1`
4.4 µM

Hello, please tell me recorded IC50 for this one: `CC(C)(C)c1ccc(Oc2ccc(NC(=S)Nc3ccccc3)cc2)cc1`
18.2 µM

For `S=C(Nc1ccc(Oc2ccccc2)cc1)Nc1ccc(Cl)c(Cl)c1` , write its IC50.
7.5 µM

Tell me its IC50 given CC(C)(C)c1ccc(Oc2ccc(NC(=S)NCC3CCCNC3)cc2)cc1 (stereo not drawn) as the entry.
11.7 µM

Note IC50 for the compound shown: `CC(C)(C)c1ccc(Oc2ccc(NC(=S)NCc3ccc(Cl)cc3)cc2)cc1`
9.2 µM

Return the recorded IC50 value; entry: CCCC(c1cccc(Oc2ccc(C(C)(C)C)cc2)c1)N(O)C(=S)NCc1cccc(Cl)c1 (stereo not drawn)
9.1 µM

Report IC50 for every entry below.
1. O=C(Nc1ccc(Cl)c(Cl)c1)Nc1ccccc1Cl
2. FC(F)(F)c1cc(NC(=S)Nc2ccc(Sc3ccccn3)cc2)ccc1Cl
3. CC(C)(C)c1ccc(Oc2ccc(CSC(=S)NCc3ccccc3)cc2)cc1

["10.1 µM", "8.3 µM", "10 µM"]

====

Test system: Aβ production in 293 751 SWE and CHO 751 SWE cells (transfected with APP-751 Swedish mutation)
Assay: Aβ production inhibition activity in cells (Aβ ELISA of conditioned media, normalized for cytotoxicity by MTT)
Type: cell-based
Conditions: 10 μg/ml, % of drug-free control, normalized to MTT
endpoint_label: inhibition at 10 µg/mL
Report as: number unit

These recorded examples may help you get a feel for the data.
Consider the compound `CCCc1c(COc2ccc(CN(O)C(=S)Nc3ccc(Cl)c(C(F)(F)F)c3)cc2)ccc(C(=O)c2ccccc2)c1O` . State its measured inhibition at 10 µg/mL.
14%

Give a short answer stating reported inhibition at 10 µg/mL for CCCCCCC(c1cccc(Oc2ccc(C(C)(C)C)cc2)c1)N(O)C(=S)NCc1ccccc1 (centres unmarked) .
26%

Provide one value: measured inhibition at 10 µg/mL of `CSc1cccc(NC(=O)Nc2nnc(C)s2)c1`
25%

Report inhibition at 10 µg/mL, nothing else, for this compound: `CCCc1cc(C(C)(C)C)ccc1Oc1ccc(NC(=S)Nc2ccc(C)c(C)c2)cc1`
44%

Below is a list of compounds. For each, state its recorded inhibition at 10 µg/mL.
1. O=C(Nc1ccc(Cl)cc1)Nc1nncs1
2. CCCCCCNC(=S)N(O)Cc1cccc(OCc2ccc(C(=O)CC)c(O)c2CCC)c1
3. CN(Cc1cccc(Oc2ccc(C(C)(C)C)cc2)c1)C(=S)NCc1ccc(Cl)c(Cl)c1

42%
37%
40%

Consider the compound `CS(=O)(=O)c1ccc(NC(=O)Nc2ccc(Cl)cc2)cc1` . State its measured inhibition at 10 µg/mL.
40%

====

Tested on: Aβ production in 293 751 SWE and CHO 751 SWE cells (transfected with APP-751 Swedish mutation)
Test: Aβ production inhibition activity in cells (Aβ ELISA of conditioned media, normalized for cytotoxicity by MTT)
Format: cell-based
Settings: 2 h pretreatment + 2 h incubation
Description: Two cell lines (human kidney cell line 293 and Chinese hamster ovary cell line CHO) were stably transfected with the gene for APP-751 containing the double mutation Lys651 -Met652 to Asn651 -Leu652 (APP-751 numbering) commonly called the Swedish mutation using the method described in Citron et al., (1992) Nature 360:672-674. […] Cytotoxic effects of the test compounds were measured by a modification of the method of Hansen et al., (1989) J. Immun. […]
pIC50: −log10 of the molar value.
Would you please tag the item y when its pIC50 is 5 or above, and n when it is below?

Reference set, count: 2
Would you say CC(C)(C)c1cccc(Oc2ccc(NC(=S)Nc3ccc(Cl)c(C(F)(F)F)c3)cc2)c1 [Compound 169] shows pIC50 at minimum 5?
y

// inclusive: pIC50 at least 5? input: CC(C)(CCl)c1nnc(NC(=O)Nc2ccc(Cl)c(Cl)c2)s1 [Compound 238]
y

Others:
Would you say CC(C)(C)c1ccc(C(=O)Nc2cccc(CN(O)C(=S)NCc3ccccc3)c2)cc1 [Compound 84] shows pIC50 at minimum 5?
n

For this compound, is measured pIC50 5 or higher? CC(C)(C)c1ccc(Oc2ccc(NC(=S)NCCCc3ccccc3)cc2)cc1 [Compound 117]
n

API: above_or_equal(metric=pIC50, cutoff=5) for item CSc1ccc(NC(=O)Nc2cccc(Cl)c2)cc1Br [Compound 162]
y
